Data origin, for the record: ChEMBL document CHEMBL1153170

target-of-assay: Phosphatidylinositol 4,5-bisphosphate 3-kinase catalytic subunit alpha isoform (Homo sapiens)
Sequence (P42336 whole entry, canonical isoform): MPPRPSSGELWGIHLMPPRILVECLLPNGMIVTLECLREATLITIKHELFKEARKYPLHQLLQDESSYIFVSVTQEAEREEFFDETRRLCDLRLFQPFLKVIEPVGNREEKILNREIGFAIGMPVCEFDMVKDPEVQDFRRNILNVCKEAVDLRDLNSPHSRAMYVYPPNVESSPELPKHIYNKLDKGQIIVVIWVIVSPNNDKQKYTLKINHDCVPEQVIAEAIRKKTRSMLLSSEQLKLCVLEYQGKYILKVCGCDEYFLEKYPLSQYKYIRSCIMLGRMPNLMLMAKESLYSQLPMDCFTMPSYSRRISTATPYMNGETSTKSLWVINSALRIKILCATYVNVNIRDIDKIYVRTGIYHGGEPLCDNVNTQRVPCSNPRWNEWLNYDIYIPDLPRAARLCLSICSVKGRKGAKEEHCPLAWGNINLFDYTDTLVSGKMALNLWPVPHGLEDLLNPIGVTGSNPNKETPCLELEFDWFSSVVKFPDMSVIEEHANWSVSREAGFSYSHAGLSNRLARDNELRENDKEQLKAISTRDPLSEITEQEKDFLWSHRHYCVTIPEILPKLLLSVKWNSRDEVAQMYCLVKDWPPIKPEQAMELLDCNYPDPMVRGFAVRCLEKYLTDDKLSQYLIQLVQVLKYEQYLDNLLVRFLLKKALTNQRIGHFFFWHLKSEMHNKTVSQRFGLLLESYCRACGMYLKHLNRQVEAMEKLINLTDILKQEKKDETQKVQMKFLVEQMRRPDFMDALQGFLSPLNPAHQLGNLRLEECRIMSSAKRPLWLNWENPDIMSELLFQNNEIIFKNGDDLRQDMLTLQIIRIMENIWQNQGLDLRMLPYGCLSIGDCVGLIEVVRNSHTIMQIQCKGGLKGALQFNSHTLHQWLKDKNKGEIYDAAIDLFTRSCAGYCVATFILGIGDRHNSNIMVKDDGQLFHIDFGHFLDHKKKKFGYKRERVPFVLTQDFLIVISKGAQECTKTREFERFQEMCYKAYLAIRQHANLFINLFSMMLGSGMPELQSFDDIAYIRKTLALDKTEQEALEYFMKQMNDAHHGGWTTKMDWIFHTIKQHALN
assay-details: Inhibition of PI3Kalpha
readout-kind: pIC50
In simple prose, pIC50 is minus the logarithm base ten of a concentration in moles per litre.

State its pIC50 for this compound: Oc1cncc(-c2nc(N3CCOCC3)c3nc[nH]c3n2)c1
7.96

State its pIC50 for this compound: COc1ccc(CN2CCC(n3cnc4c(N5CCOCC5)nc(-c5cccc(O)c5)nc43)CC2)cn1
7.26

State its pIC50 for this compound: Oc1cccc(-c2nc(N3CCOCC3)c3ncn(C4CCN(Cc5ccccc5)CC4)c3n2)c1
7.12

State its pIC50 for this compound: OCc1cccc(-c2nc(N3CCOCC3)c3ncn(C4CCN(c5ccc(F)cc5F)CC4)c3n2)c1
7.36

State its pIC50 for this compound: Oc1cncc(-c2nc(N3CCOCC3)c3ncn(C4CCNCC4)c3n2)c1
7.85

State its pIC50 for this compound: Oc1cncc(-c2nc(N3CCOCC3)c3ncn(C4CCN(Cc5ccc(F)nc5)CC4)c3n2)c1
7.03

State its pIC50 for this compound: Oc1cccc(-c2nc(N3CCOCC3)c3ncn(C4CCN(Cc5cccnc5)CC4)c3n2)c1
7.18

State its pIC50 for this compound: OCc1cccc(-c2nc(N3CCOCC3)c3ncn(C4CCN(Cc5ccccc5F)CC4)c3n2)c1
7.38

State its pIC50 for this compound: Oc1cccc(-c2nc(N3CCOCC3)c3ncn(C4CCN(Cc5ccc(N6CCOCC6)nc5)CC4)c3n2)c1
7.40

State its pIC50 for this compound: OCc1cccc(-c2nc(N3CCOCC3)c3ncn(C4CCN(Cc5ccccn5)CC4)c3n2)c1
7.19

State its pIC50 for this compound: Oc1cccc(-c2nc(N3CCOCC3)c3ncn(C4CCN(Cc5cncc(Cl)c5)CC4)c3n2)c1
7.43
